Target: TEAD2 (Homo sapiens, UniProt Q15562)
Sequence (Q15562 whole entry, species assumed): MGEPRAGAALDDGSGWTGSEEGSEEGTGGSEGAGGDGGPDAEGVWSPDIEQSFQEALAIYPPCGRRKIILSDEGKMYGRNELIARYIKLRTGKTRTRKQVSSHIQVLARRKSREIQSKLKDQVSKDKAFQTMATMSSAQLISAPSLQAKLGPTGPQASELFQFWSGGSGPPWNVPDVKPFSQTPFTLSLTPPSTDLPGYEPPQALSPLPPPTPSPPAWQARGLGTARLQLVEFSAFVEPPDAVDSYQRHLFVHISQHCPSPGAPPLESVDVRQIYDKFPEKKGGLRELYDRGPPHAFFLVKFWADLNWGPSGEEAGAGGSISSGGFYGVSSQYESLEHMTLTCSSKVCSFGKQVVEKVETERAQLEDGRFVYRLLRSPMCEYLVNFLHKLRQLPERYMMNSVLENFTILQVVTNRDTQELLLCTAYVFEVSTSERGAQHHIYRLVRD
Experiment: Thermal shift assay TEAD2
Format: binding
readout: TEAD2 ΔTm (°C)

[a] Cn1cc2cc(Oc3ccc(C(F)(F)F)cc3)cc([C@@H]3C[C@H]3C(=O)N3CCC34CC(=O)C4)c2n1 (single isomer, unassigned)
[b] [2H]C([2H])([2H])NC(=O)[C@H]1CC1c1cc(Oc2ccc(C(F)(F)F)cc2)cc2cn(C)nc12 (single isomer, unassigned)
Recorded TEAD2 ΔTm values differ for a and b ; which one is higher? Indicate which entry you chose by stating its label.
a

[P] CNC(=O)[C@@H]1CC1c1cc(-c2ccc(OC(F)(F)F)cc2)cc2cn(C)nc12 (mixture of isomers)
[Q] CN(C)C(=O)[C@@H]1CC1c1cc(-c2ccc(C(F)(F)F)cc2)cc2c1cnn2C (mixture of isomers)
// which entry reports the smaller TEAD2 ΔTm, P or Q ? Indicate which entry you chose by stating its label.
Q
(Q: 1.9 °C, P: 6.7 °C)
